target-or-system: Vasopressin V1a receptor (Rattus norvegicus) (UniProt P30560)
Sequence (P30560 whole entry, looked up): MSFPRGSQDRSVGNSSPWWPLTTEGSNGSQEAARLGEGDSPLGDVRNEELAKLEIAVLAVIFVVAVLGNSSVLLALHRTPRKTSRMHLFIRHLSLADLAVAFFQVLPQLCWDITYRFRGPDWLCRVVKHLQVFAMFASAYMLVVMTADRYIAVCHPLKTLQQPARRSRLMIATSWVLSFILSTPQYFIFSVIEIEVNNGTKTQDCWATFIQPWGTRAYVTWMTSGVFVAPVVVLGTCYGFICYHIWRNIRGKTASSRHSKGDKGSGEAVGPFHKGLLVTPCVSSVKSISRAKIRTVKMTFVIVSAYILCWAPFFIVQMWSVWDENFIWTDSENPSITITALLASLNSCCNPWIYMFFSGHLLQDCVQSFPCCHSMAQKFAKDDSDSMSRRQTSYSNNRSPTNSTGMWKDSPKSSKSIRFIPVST
experiment: Displacement of [3H]arginine vasopressin from rat liver (AVP-V1a site) at 10 uM
Where a SMILES comes first, the peptide text is derived from it. [ ]: non-standard residue; d: D form. dNMeF = CN[C@H](Cc1ccccc1)C(=O)O; Pip = O=C(O)[C@@H]1CCCCN1; dPip = O=C(O)[C@H]1CCCCN1; NMeA = CN[C@@H](C)C(=O)O
recorded-metric: inhibition

compound: CC[C@H](C)[C@@H]1NC(=O)[C@@H](Cc2ccccc2)NC(=O)[C@@H]2CCCN2C(=O)[C@@H](Cc2ccccc2)N(C)C(=O)[C@H](CC(=O)O)NC(=O)[C@H]2CCCCN2C1=O (cyclo(D[dNMeF]P[dF]I[dPip]))
target-or-system: Vasopressin V1a receptor (Rattus norvegicus) (UniProt P30560)
recorded-metric: inhibition
result: 0%
--
compound: CC[C@H](C)[C@@H]1NC(=O)[C@@H](Cc2ccccc2)NC(=O)[C@H](C)N(C)C(=O)[C@@H](Cc2ccccc2)N(C)C(=O)[C@@H]2CCCCN2C(=O)[C@H]2CCCCN2C1=O (cyclo(I[dPip][Pip][dNMeF][NMeA][dF]))
target-or-system: Vasopressin V1a receptor (Rattus norvegicus) (UniProt P30560)
recorded-metric: inhibition
result: 34%
--
compound: CC[C@H](C)[C@@H]1NC(=O)[C@@H](Cc2ccccc2)NC(=O)[C@@H]2CCCN2C(=O)[C@@H](Cc2ccccc2)N(C)C(=O)[C@H](Cc2c[nH]cn2)NC(=O)[C@H]2CCCCN2C1=O
target-or-system: Vasopressin V1a receptor (Rattus norvegicus) (UniProt P30560)
recorded-metric: inhibition
result: 66%
